Entry source: the supplement of paper PMC9170038

test system: MS2 coat protein; experiment: apparent KD of MS2 coat protein; designed switch direction (-1 OFF switch, 1 ON switch): -1; higher = weaker reporter binding; details: input ligand: none
Reported metric: apparent KD of MS2 coat protein (nM)
Response body: numeric value in nM, unit text excluded.

The examples below pair each entry with its known result.
Sequence entry | Measurement target | Unit info | apparent KD of MS2 coat protein
CAUUGUUAUCGAGGAUAUCCUAUUGAGAUUCUAGGAGAAGGCGGACUAAACAUGAGGAUCACCCAUGUGGGACGGAUGCUAGGG [Ex NG1 #30] (Eterna round: R96, puzzle: Exclusion NG 1) | MS2 coat protein | nM | 25.2
AAUAAGCUAGGAUAUACAUGAGGAUCACCCAUGUAUGACGAUACAGAAUCUGGCCCGAGUAGAAGGAGCAAACU [EX3 B.7] (Eterna round: R97, puzzle: Exclusion 3) | MS2 coat protein | nM | 17.4

Query sequence follows.
Any idea what apparent KD of MS2 coat protein came out for AAGAUGUGAGGAUAUCUAUUGAAGCGCGGUUCCCGGCAGAGAGAGAAGGCACAUGAGGAUCACCCAUGUAUAGC [Eternabot (L1) Solution 53] (Eterna round: R97, puzzle: Exclusion 4) on MS2 coat protein?
20.6

* * *

test system: MS2 coat protein; test: apparent KD of MS2 coat protein; designed switch direction (-1 OFF switch, 1 ON switch): -1; higher = weaker reporter binding; conditions: Eterna round: R95; input ligand: none
Quick rule for you: apparent KD of MS2 coat protein at 20 nM or higher means 1.0, lower means 0.0.

Sequence entry | Label
GGUACUAACACGAUAGUGUUAGUACUAUAAGCUUGUGUUACAUGAGGAUCACCCAUGUCCUCAUAGGCUCGUCUUAU [Mat - Sensor v3 - Turn-off var 2 - D86] (puzzle: Sensor v3, turn-off variant 2) | 1.0
AAUUUACAUGAGGAUCACCCAUGUCAGGAUAUGGUUUUAUUUUUUUUUUUUUUUUAUUCCAGAAGGGACAGUUA (puzzle: Exclusion 1) | 0.0
GCAGUGCGAGGAUAUACAUGAGGAUCACCCAUGUGAGAAGAAUAAGUGAGGAAGAAAAGUAGAAGGCGCGUUGG [Mat - Exclusion 3 - Mod of Salish D68] (puzzle: Exclusion 3) | 1.0
AAUAACAAGUAGAUCCUAAACAUGAGGAUCACCCAUGUGCUCGUCUUGUAAAGUACUAUCACGAAAGUGAUAGUACA [Sensor 3, v1 - 58] (puzzle: Sensor v3, turn-off variant 1) | 1.0
AAGAAACAUGAGGAUCACCCAUGUGAGGAUAUGACCAAGAAAAGAAAAGAAAGAAGAUUCAGAAGGCACAAAGG [salish99-ex1_r3_060] (puzzle: Exclusion 1) | 1.0
UGUACUAACACGAGAGUGUUAGUACUAUAAGCUUGUGUUACAUGAGGAUCACCCAUGUCCUCAUAAGCUCGUCUUGA [Mat - Sensor v3 - Turn-off var 2 - D94] (puzzle: Sensor v3, turn-off variant 2) | 1.0
GAUUAUGCGAGCUUUAGGGACAUGAGGAUCACCCAUGUUCGUCUUAUUAGUCUGAAUGCACUGACAUACCUAAAUCU [JMF 75] (puzzle: Sensor v3, turn-off variant 1) | 0.0
AAAUACAAGUAAAGAUUCUACAUGAGGAUCACCCAUGUGCUCGUCUUAUAAAGUACUAUCACGAAAGUGAUAGUACA [Sensor 3, v1 - 26] (puzzle: Sensor v3, turn-off variant 1) | 0.0
AGUAGUAGUAUCCGAUCCGACAUGAGGAUCACCCAUGUAGCUAGACGUGCACGCGAUGCUCGUCAGACUACCAGAUG [salish99_TOv1_r3_037] (puzzle: Sensor v3, turn-off variant 1) | 1.0
AGUACUAACACGCGAGUGUUAGUACAAUAAGCUUGUGAAACAUGAGGAUCACCCAUGUCCUCAUAAGCUCGUCUUAU [salish99_TOv2_r3_059] (puzzle: Sensor v3, turn-off variant 2) | 0.0

Please tell me: is the sequence CAGUACUGAGGAUAUACAUGAGGAUCACCCAUGUGUCCCAGCUAGGAAACUAGCAAAAGUAGAAGGCAGUACUG [Fiskers Ex 3 828 mod 1] (puzzle: Exclusion 3) at or over 20 nM in terms of apparent KD of MS2 coat protein?
1.0

Also AAGAAGAAACAAGCUUUUUGCACGUCAUAUAGUGACGCAACAUGAGGAUCACCCAUGUAUAGGGUGGGAAAGGAUAG [JR_SV3TOV2_Sub047] (puzzle: Sensor v3, turn-off variant 2) , if possible.
1.0

Also CAGUACUGAGGAUAUACAUGAGGAUCACCCAUGUGUUCCAGCUAGGAAACUAGCAAAAGUAGAAGGCAGUACUG [salish99_ex3_r3_064] (puzzle: Exclusion 3) , if possible.
1.0

Also UUUAAUUUUUUUUUUUUACAAGCUUUUUGCUCGUCUUAUACAUGAGGAUCACCCAUGUAAGUGAGGGAUAAAUUAUC [JMF 40] (puzzle: Sensor v3, turn-off variant 2) , if possible.
0.0

Also CCGCAAAUGGAGGAUAUCGUAUCGGAGACGAUACGAGAAGGCCAAACAUGAGGAUCACCCAUGUGUCCUAGCGG [Mat - Exclusion 6 - Eli Mod - D102] (puzzle: Exclusion 6) , if possible.
0.0

* * *

tested on: MS2 coat protein; assay: apparent KD of MS2 coat protein; higher = weaker reporter binding; conditions: Eterna round: R107; input ligand: tryptophan 2.4 mM
So basically, the class depends on measured apparent KD of MS2 coat protein, and the ranges are low end (below 20 nM), middle (20 nM to below 70 nM), high end (70 nM or more)

State the band of AGUCUUGAACGAAGGAGCGACGUACAUGAGGAUCACCCAUGUGUGGAGCGAAAGCUCCAACGUCAGGUAGGUCGCGUUCGAGACA [Omei Arginine B SS A v2]
low end

Also ACGGAUCGGAAACGAUCCGCGGCGAGGGUGCGAGGACCGGUACGGCCGCCACUCGGCUAACAUGAGGAUCACCCAUGUCCGAAGA [ETA NuPACK+Vienna+Vienna2 #9] , if possible.
high end

Also GUACGAGUUGAAUGUGAGACUGGCGUGGAAGGAGCGCACGGAGGUGCAGGUAGGUCGCCACAUGAGGAUCACCCAUGUCGGCUAG [XARG-A 23] , if possible.
middle

* * *

test system: K4 kissing-loop RNA reporter; test: apparent KD of K4 kissing-loop reporter; higher = weaker reporter binding; details: Eterna round: R107; input ligand: arginine 13.2 mM;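 further: bound reporter read as fluorescence of individual clusters on recovered sequencing chips by microscopy, with normalized cluster intensities fitted with a binding model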
Quick rule for you: apparent KD of K4 kissing-loop reporter at 500 nM or higher means Criterion met, lower means Criterion not met.

Sequence entry | Measurement target | Label
AAAAUAAACCAGUGAUGUUGGUGUCCAGAUACCAGCGAUAAUCAUCGCCCUUGGCAGCUGCGGACGUACAAAAUAAGUACGUCCU [MatMod 12 - Jieux - Same State - Theophylline A] | K4 kissing-loop RNA reporter | Criterion not met
GGUCGGAGUGAUGUUCCGAGCUUCAGUCAUCGAGGACCGGUACGGCCGCCACUCGUCUACUAUGACGUAUCACCCUCCACGUGUU [theeternabot_sameState_KL_Trp_A_33] | K4 kissing-loop RNA reporter | Criterion not met
AACCACUCGUUACAUCACUAUCGAGUGGAACGAGGACCGGUACGGCCGCCACUCGAUUAGAUGCAGUGAUGUUGCAUCUUAGAAU [KL-SSTryp-A (BrourdMod)3 #dotplot2 strengthened] | K4 kissing-loop RNA reporter | Criterion not met
UGAUACCAGACGGCCGCCACUCCCGUAAGUCAAAGACUUACCAAGAGAAUCGUCCAGUGAUGUUGGAGGACCGGGUCUGGUAUCU [FiskerMod 8 - Jieux - Exclusion - Tryptophan B] | K4 kissing-loop RNA reporter | Criterion met

Please tell me: is the sequence AAGGUUCGUGGAAGGAGCGCCCGUGCGACUCGUUCAGUAAGUGAAGUCCGAGUGAUGUUCGGGCAGGUAGGUCGCCACGGGCAAA [Usontezaon] at or over 500 nM in terms of apparent KD of K4 kissing-loop reporter?
Criterion not met

* * *

test system: MS2 coat protein; assay: apparent KD of MS2 coat protein; designed switch direction (-1 OFF switch, 1 ON switch): -1; higher = weaker reporter binding; details: Eterna round: R95; input ligand: microRNA oligo, concentration not stated
Recorded apparent KD of MS2 coat protein, one value per entry.
A complete answer gives the number followed by the unit.

Sequence entry | Measurement target | apparent KD of MS2 coat protein
UUGGAGAUAGGAUAUACGAGGAGAGUAGAGGGAAGGUGAUGACAUGAGGAUCACCCAUGUAGAAGGAUCAGGAG [JR_Exclu2_Sub068] (puzzle: Exclusion 2) | MS2 coat protein | 0.112 µM
AGUAGAUCUACGCUUGCGUGGAUCUGCAAUGCAGGUGUUACAUGAGGAUCACCCAUGUCCUCGUUUGCUCGUCUUAU [JL turnoff v2 99.12] (puzzle: Sensor v3, turn-off variant 2) | MS2 coat protein | 0.664 µM
AAGUAUAGAGGAUAUAGUAGUUACAACAUGAGGAUCACCCAUGUUCUUCAUAACGUAGUUCUAGAAGGCUGAUAAA [EX-5 Malc#28] (puzzle: Exclusion 5) | MS2 coat protein | 0.172 µM
AGAUGGCGAGGAUAUACAUGAGGAUCACCCAUGUGAGAGAAAAGAGUGAGGAAGAAAAGUAGAAGGCGCUGUCA [Mat - Exclusion 3 - Mod of Salish D17] (puzzle: Exclusion 3) | MS2 coat protein | 0.071 µM

Query sequence follows.
Can you look up the measured apparent KD of MS2 coat protein of GUGUAGUAAGGAUAUAGAAAGAGGGAGUAAGAUAGAGAGUUCUAGAAGGUACAUGAGGAUCACCCAUGUUGGAG [JR_Exclu4_Sub082] (puzzle: Exclusion 4) for me?
0.0289 µM
